B1: CPEB3 Ribozyme (parent)
chain: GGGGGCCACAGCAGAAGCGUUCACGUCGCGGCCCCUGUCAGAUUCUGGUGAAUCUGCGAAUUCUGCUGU

Variants of: B1
Test: self-cleavage, relative activity (ratio to wild type); higher = more cleavage; co-transcriptional
Label scheme for self-cleavage: low: < 0.3; mid: ≥ 0.3 and < 0.8; high: ≥ 0.8

Take a look at these entries with their results.
| Variant notation | Assigned category |
| --- | --- |
| C34G U69A | high |
| U21G U26G | low |
| G1U U55A | low |
| G11U G41U | mid |
| C39G G47U | high |

Any idea which band A15U C32A is in?
low
